The measurements presented in this section are drawn from the SangsterLogP compilation.

readoutKind: logP

Example results:
INSERT INTO assay_data (linenotation, number) VALUES
  ('Cc1c[n+]([O-])c(C)c(Cl)n1', 0.44),
  ('Brc1ccc(-c2nccnc2-c2ccc(Br)cc2)cc1', 3.41),
  ('Clc1cnc(-c2ccccc2)c(-c2ccccc2)n1', 4.05),
  ('CC(C)c1cnc(-c2ccccc2)c(-c2ccccc2)n1', 4.71),
  ('N#Cc1ccc(-c2nccnc2-c2ccc(C#N)cc2)cc1', 2.52),
  ('COc1ccc(-c2ncc(OC)nc2-c2ccc(OC)cc2)cc1', 4.47);

I = Cc1cnc(-c2ccccc2)c(-c2ccccc2)n1
II = COc1ccccc1Cc1cnc(-c2ccccc2)c(-c2ccccc2)n1
III = Cc1nc(Cl)c(C)[n+]([O-])c1Cl
Q: Sort by logP, descending. Please list the labels according to the requested order.
Ans: II, I, III

A = Cc1ccc(-c2nccnc2-c2ccc(C)cc2)cc1
B = Cc1ncc(C)[n+]([O-])c1Cl
C = Cc1nc(Cl)c(C)nc1Cl
Q: Ascending by logP, please. Please list the labels according to the requested order.
Ans: B, C, A
(B: 0.19, C: 2.4, A: 4.1)

---

method: method code SF-HPLC, from DOI: 10.1021/js990112s, PMID: 10585226
readoutKind: logP

INSERT INTO assay_data (linenotation, number) VALUES
  ('c1ccc(-c2cnccn2)cc1', 2.07),
  ('COc1ccc(-c2cnccn2)cc1', 2.24);

---

readoutKind: logP

Example results:
INSERT INTO assay_data (linenotation, number) VALUES
  ('COC(=O)c1cnc(-c2ccc(OC)cc2)c(-c2ccc(OC)cc2)n1', 3.41),
  ('COc1ccc(-c2nccnc2-c2ccc(OC)cc2)cc1', 3.42),
  ('CCOc1cnc(-c2ccc(OC)cc2)c(-c2ccc(OC)cc2)n1', 4.22),
  ('COc1ccc(-c2nc(C)c(C)nc2-c2ccc(OC)cc2)cc1', 4.1);

P = CCOc1cnc(-c2ccccc2)c(-c2ccccc2)n1
Q = c1ccc(-c2nccnc2-c2ccccc2)cc1
Q: Sorting ascending by logP, which comes first: P or Q ? The response must carry the label of the picked entry.
Ans: Q
(Q: 3.19, P: 4.73)

---

readoutKind: logP

INSERT INTO assay_data (linenotation, number) VALUES
  ('COc1cnc(-c2ccccc2)c(-c2ccccc2)n1', 4.21),
  ('CCc1nc(-c2ccccc2)cnc1-c1ccccc1', 4.94),
  ('COc1ccc(-c2ncc(C#N)nc2-c2ccc(OC)cc2)cc1', 3.7),
  ('COc1ccc(-c2ncc(C)nc2-c2ccc(OC)cc2)cc1', 3.66),
  ('[O-][n+]1cc(Cl)nc(-c2ccc(Cl)cc2)c1-c1ccc(Cl)cc1', 3.66),
  ('COc1ccc(-c2ncc(Cl)nc2-c2ccc(OC)cc2)cc1', 4.3),
  ('Cc1nc(C)c(-c2ccccc2)nc1-c1ccccc1', 4.83),
  ('Cc1nc(-c2ccccc2)cnc1-c1ccccc1', 4.28),
  ('Fc1ccc(-c2nccnc2-c2ccc(F)cc2)cc1', 3.75);
